ASSAY_TEXT: Sealed tube test of stability of dyes in refrigerant/refrigeration oil with metal coupons
Format: physicochemical
ASSAY_CONTEXT: Table I, sealed tube data in R-12 at 350° F.
Just a reminder that ties go to rule not met: only Stability, Mean Life strictly below 8 days counts as rule met.

Ask: Below 8 days on Stability, Mean Life? Entry Cc1cccc(C)c1Nc1ccc(Nc2c(C)cccc2C)c2c1C(=O)c1ccccc1C2=O
Result: rule not met

Ask: Below 8 days on Stability, Mean Life? Entry CC(C)(C)c1ccc(Nc2ccc(Nc3ccc(C(C)(C)C)cc3)c3c2C(=O)c2ccccc2C3=O)cc1
Result: rule not met

Ask: Below 8 days on Stability, Mean Life? Entry CCc1cccc(C)c1Nc1ccc(Nc2c(C)cccc2CC)c2c1C(=O)c1ccccc1C2=O
Result: rule not met

Ask: Below 8 days on Stability, Mean Life? Entry Cc1cc(C)c(Nc2ccc(Nc3c(C)cc(C)cc3C)c3c2C(=O)c2ccccc2C3=O)c(C)c1
Result: rule not met

Ask: Below 8 days on Stability, Mean Life? Entry CCCCc1ccc(Nc2ccc(Nc3ccc(C)cc3)c3c2C(=O)c2ccccc2C3=O)cc1
Result: rule met

Ask: Below 8 days on Stability, Mean Life? Entry CCCCc1ccc(Nc2cc(C)c(Nc3ccc(CCCC)cc3)c3c2C(=O)c2ccccc2C3=O)cc1
Result: rule met

Ask: Below 8 days on Stability, Mean Life? Entry CCOc1ccc(N(C)c2ccc(N(C)c3ccc(OCC)cc3)c3c2C(=O)c2ccccc2C3=O)cc1
Result: rule met

Ask: Below 8 days on Stability, Mean Life? Entry CCCCc1ccc(Nc2ccc(Nc3ccc(CCCC)cc3)c3c2C(=O)c2ccccc2C3=O)cc1
Result: rule not met

* * *

ASSAY_TEXT: Solubility of dyes in refrigeration oils
ASSAY_CONTEXT: Table I, Suniso 3GS refrigeration oil
METRIC: Oil Sol. In 3GS (%)
Express the result in % but write the number alone.

Ask: Looking for the measured Oil Sol. In 3GS of CCCCc1ccc(Nc2ccc(Nc3ccc(C)cc3)c3c2C(=O)c2ccccc2C3=O)cc1 [Dye No. 21-11, 1-(4-n-butylanilino)-4-(p-toluidino)] , can you help?
Result: 0.1

Ask: Looking for the measured Oil Sol. In 3GS of CCCCOc1ccc(N(C)c2ccc(N(C)c3ccc(OCCCC)cc3)c3c2C(=O)c2ccccc2C3=O)cc1 [Dye No. 20-12, 1,4-Bis(N--methyl-4-n-butoxyanilino)] , can you help?
Result: 0.1

Ask: Looking for the measured Oil Sol. In 3GS of CC(C)(C)c1ccc(Nc2ccc(Nc3ccc(C(C)(C)C)cc3)c3c2C(=O)c2ccccc2C3=O)cc1 [Dye No. 6-21, 1,4-Bis(4-t-butylanilino)] , can you help?
Result: 1.0

Ask: Looking for the measured Oil Sol. In 3GS of Cc1cc(C)c(Nc2ccc(Nc3c(C)cc(C)cc3C)c3c2C(=O)c2ccccc2C3=O)c(C)c1 [Dye No. 3-25, 1,4-Bis(mesidino)anthraquinone] , can you help?
Result: 0.55

Ask: Looking for the measured Oil Sol. In 3GS of CCc1cccc(C)c1Nc1ccc(Nc2c(C)cccc2CC)c2c1C(=O)c1ccccc1C2=O [Dye No. 1-35] , can you help?
Result: 4.8

* * *

For each record, write down the corresponding Stability, Mean Life.
ASSAY_TEXT: Sealed tube test of stability of dyes in refrigerant/refrigeration oil with metal coupons
Type: physicochemical
ASSAY_CONTEXT: Table I, sealed tube data in R-12 at 350° F.
Express the result in days but write the number alone.

Ask: Looking for the measured Stability, Mean Life of O=C1c2ccccc2C(=O)c2c(NCc3ccccc3)ccc(NCc3ccccc3)c21 , can you help?
Result: 4.5

Ask: Looking for the measured Stability, Mean Life of CCCCc1ccc(N(C)c2ccc(N(C)c3ccc(CCCC)cc3)c3c2C(=O)c2ccccc2C3=O)cc1 , can you help?
Result: 4.3

Ask: Looking for the measured Stability, Mean Life of CN(c1ccccc1)c1ccc(N(C)c2ccccc2)c2c1C(=O)c1ccccc1C2=O , can you help?
Result: 7.0

Ask: Looking for the measured Stability, Mean Life of CCCCCCCCNc1ccc(NCCCCCCCC)c2c1C(=O)c1ccccc1C2=O , can you help?
Result: 4.4

Ask: Looking for the measured Stability, Mean Life of O=C1c2ccccc2C(=O)c2c(Nc3ccc(C4CCCCC4)cc3)ccc(Nc3ccc(C4CCCCC4)cc3)c21 , can you help?
Result: 9.7

Ask: Looking for the measured Stability, Mean Life of CCN(c1ccccc1)c1ccc(N(CC)c2ccccc2)c2c1C(=O)c1ccccc1C2=O , can you help?
Result: 4.5
